Recorded pIC50, one value per entry.
# systemName: K103NNY181C mutant reverse transcriptase (Human immunodeficiency virus type 1 group M subtype B, UniProt P04585, K690N/Y768C)
# Construct: mutations that occur in the reverse transcriptase segment of the pol gene
# testSummary: Reverse transcriptase enzymatic assay (PicoGreen), K103N/Y181C mutant RT
# Assay type: biochemical, HIV-1
# appliedConditions: IC50 mut, K103N/Y181C mutant reverse transcriptase, enzymatic assay of Example 24
A value of pIC50 is the negative decimal logarithm of a concentration given in moles per litre.

Some entries whose results are on file:
CC(C)(C#Cc1ccc(NC(=O)CSc2nnnn2-c2cc(C3CC3)ccc2Cl)c(Cl)c1)NC(=O)CN ... 7.71
CN(C)CC(=O)NC(C)(C)C#Cc1ccc(NC(=O)CSc2nnnn2-c2ccc(C3CC3)cc2Cl)c(Cl)c1 ... 7.67

Now take the following molecule into account.
Qu. pIC50 lookup needed for CC(C)(C)c1ccc(-n2nnnc2SCC(=O)Nc2ccc(C#CCCC(=O)O)cc2Cl)c(Cl)c1 , thanks.
Ans. 7.61

* * *

# systemName: K103NNY181C mutant reverse transcriptase (Human immunodeficiency virus type 1 group M subtype B, UniProt P04585, K690N/Y768C)
# Construct: mutations that occur in the reverse transcriptase segment of the pol gene
# testSummary: Reverse transcriptase enzymatic assay (PicoGreen), K103N/Y181C mutant RT
# Assay type: biochemical, HIV-1
# appliedConditions: IC50 mut, K103N/Y181C mutant reverse transcriptase, enzymatic assay of Example 24
# Procedure: The enzymatic assay employed is described as follows: The reverse transcriptase (RT) enzyme assay has been adapted to a 96-well microtiter plate format and uses PicoGreen™ as a fluorescent intercalator. […] The plate was then analyzed using a POLARstar Galaxy fluorometer (BMG Labtechnologies) with λex and λem of 485 nm and 520 nm respectively. Each well was read for 1.25 second. […]
pIC50: −log10 of the molar value.
met means recorded pIC50 is 7 or above; not met means it is below 7.

Worked examples follow.
CC(C)(C#Cc1ccc(NC(=O)CSc2nnnn2-c2ccc(C3CC3)cc2Cl)c(Cl)c1)NC(=O)c1ccncc1 ... met
CC(C)(C#Cc1ccc(NC(=O)CSc2nnnn2-c2cc(C(F)(F)F)cc(C3CC3)c2Cl)c(Cl)c1)OCCN1CCC(F)(F)C1 ... not met
CC(C)(C#Cc1ccc(NC(=O)CSc2nnnn2-c2cc(C(F)(F)F)cc(C3CC3)c2Cl)c(Cl)c1F)NC(=O)c1ccc[n+]([O-])c1 ... met
CC(C)(C#Cc1ccc(NC(=O)CSc2nnnn2-c2ccc(C(C)(C)C)cc2Cl)c(Cl)c1)OCC(=O)NC1(C(=O)O)CC1 ... met

Qu. Given CC(C)(C)c1ccc(-n2nnnc2SCC(=O)Nc2ccc(C#Cc3ccccc3)cc2Cl)c(Cl)c1 , state whether its pIC50 is at least 7.
Ans. not met

* * *

Listing: pIC50 of selected compounds
# systemName: K103NNY181C mutant reverse transcriptase (Human immunodeficiency virus type 1 group M subtype B, UniProt P04585, K690N/Y768C)
# Construct: mutations that occur in the reverse transcriptase segment of the pol gene
# testSummary: Reverse transcriptase enzymatic assay (PicoGreen), K103N/Y181C mutant RT
# Type: biochemical, HIV-1
# appliedConditions: IC50 mut, K103N/Y181C mutant reverse transcriptase, enzymatic assay of Example 24
For clarity, pIC50 is expressed as the negative log10 of concentration in mol/L.

Example entries and their recorded answers appear below.
CC(C)(C#Cc1ccc(NC(=O)CSc2nnnn2-c2cc(Br)ccc2Cl)c(Cl)c1)C(=O)O ... 7.50
CCS(=O)(=O)NC(=O)C(C)(C)C#Cc1ccc(NC(=O)CSc2nnnn2-c2ccc(C3CC3)cc2Cl)c(Cl)c1 ... 7.24
CC(C)(N)C#Cc1ccc(NC(=O)CSc2nnnn2-c2cc(C3CC3)cc(C(F)(F)F)c2Cl)c(Cl)c1F ... 7.29
CC(NC(=O)COC(C)(C)C#Cc1ccc(NC(=O)CSc2nnnn2-c2ccc(C(C)(C)C)cc2Cl)c(Cl)c1)C(=O)O (centres unmarked) ... 7.60
CC(C)(C#Cc1ccc(NC(=O)CSc2nnnn2-c2ccc(C(C)(C)C)cc2Cl)c(Cl)c1)OCC(=O)Nc1ccc(O)cc1 ... 7.46
CC(C)(C#Cc1ccc(NC(=O)CSc2nnnn2-c2cc(C(C)(C)C)cc(Br)c2Cl)c(Cl)c1)NC(=O)CN1CCNCC1 ... 7.00
C#Cc1ccc(NC(=O)CSc2nnnn2-c2ccc(C(C)(C)C)cc2Cl)c(Cl)c1 ... 7.16
CN(C)C(=O)COC(C)(C)C#Cc1ccc(NC(=O)CSc2nnnn2-c2ccc(C(C)(C)C)cc2Cl)c(Cl)c1 ... 7.52
CC(C)(C#Cc1ccc(NC(=O)CSc2nnnn2-c2ccc(C(C)(C)C)cc2Cl)c(Cl)c1)OCC(=O)NNC(N)=O ... 7.59
CNCCOC(=O)COC(C)(C)C#Cc1ccc(NC(=O)CSc2nnnn2-c2ccc(C(C)(C)C)cc2Cl)c(Cl)c1 ... 7.25

Qu. Give the measured pIC50 of CC(=O)NNC(=O)COC(C)(C)C#Cc1ccc(NC(=O)CSc2nnnn2-c2ccc(C(C)(C)C)cc2Cl)c(Cl)c1 .
Ans. 7.46

Qu. Could you tell me which pIC50 is on file for COC(=O)C(C)(C)C#Cc1ccc(NC(=O)CSc2nnnn2-c2cc(C(F)(F)F)ccc2Cl)c(Cl)c1 ?
Ans. 7.35

Qu. Return reported pIC50; argument: CN(C)CC(=O)NC(C)(C)C#Cc1ccc(NC(=O)CSc2nnnn2-c2ccc(C3CC3)cc2Cl)c(Cl)c1F
Ans. 8.04
